biological target: JAK2 kinase (Homo sapiens (Human))
Sequence (O60674 whole entry): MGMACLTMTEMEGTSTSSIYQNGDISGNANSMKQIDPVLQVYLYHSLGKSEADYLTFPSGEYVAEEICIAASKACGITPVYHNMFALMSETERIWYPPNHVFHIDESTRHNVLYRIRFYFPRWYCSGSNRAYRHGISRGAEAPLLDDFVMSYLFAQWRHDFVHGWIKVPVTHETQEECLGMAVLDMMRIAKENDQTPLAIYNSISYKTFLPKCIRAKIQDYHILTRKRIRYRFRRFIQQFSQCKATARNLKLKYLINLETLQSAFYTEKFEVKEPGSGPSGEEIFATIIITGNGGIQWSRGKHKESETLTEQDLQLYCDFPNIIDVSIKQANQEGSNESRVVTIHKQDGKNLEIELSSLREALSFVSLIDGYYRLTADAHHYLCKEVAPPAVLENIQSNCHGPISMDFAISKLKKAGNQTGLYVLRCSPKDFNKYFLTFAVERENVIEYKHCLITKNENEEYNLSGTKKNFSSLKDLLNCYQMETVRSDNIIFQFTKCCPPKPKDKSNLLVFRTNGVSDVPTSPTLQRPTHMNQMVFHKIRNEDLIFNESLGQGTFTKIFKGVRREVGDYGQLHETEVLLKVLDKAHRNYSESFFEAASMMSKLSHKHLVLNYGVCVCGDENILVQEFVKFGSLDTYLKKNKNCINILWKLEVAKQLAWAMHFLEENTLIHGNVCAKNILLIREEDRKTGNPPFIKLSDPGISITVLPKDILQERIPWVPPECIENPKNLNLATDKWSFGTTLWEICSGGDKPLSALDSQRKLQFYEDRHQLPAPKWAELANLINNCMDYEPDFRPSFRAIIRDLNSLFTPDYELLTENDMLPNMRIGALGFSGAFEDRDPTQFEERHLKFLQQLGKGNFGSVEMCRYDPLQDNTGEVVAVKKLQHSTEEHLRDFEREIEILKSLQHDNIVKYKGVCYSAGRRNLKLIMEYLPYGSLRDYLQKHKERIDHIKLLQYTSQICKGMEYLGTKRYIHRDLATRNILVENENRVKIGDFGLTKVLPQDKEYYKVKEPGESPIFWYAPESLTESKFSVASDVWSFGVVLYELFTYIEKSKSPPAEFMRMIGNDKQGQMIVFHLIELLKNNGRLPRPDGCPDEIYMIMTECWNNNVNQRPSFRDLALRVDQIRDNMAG
pIC50: −log10 of the molar value.
property label: pIC50

Lookup: // Input: N#CCC(C1CCCC1O)n1cc(-c2ncnc3[nH]ccc23)c(N)n1 (stereo not shown) . Output its pIC50 only.
Found: > 8.00

----------
Measured half-life at 1 μM, listed per entry for reference.
test: Human liver microsomal stability test, determination of inherent clearance; type: in vitro ADME; conditions: both sexes; 1 μM compound, human liver microsomes 0.4 mg/mL protein, 1.25 mM NADPH, 37° C., 1 hour; read-out: Human liver microsome T1/2 (converted)

Known half-life at 1 μM results, listed for orientation:
| molecule | half-life at 1 μM |
| --- | --- |
| N#CCC(C1CCCC1=O)n1cc(-c2ncnc3[nH]ccc23)c(N)n1 (stereo not shown) [Compound IV] | > 4 h |
| N#CC[C@H](C1CCCC1)n1cc(-c2ncnc3[nH]ccc23)c(N)n1 [Compound I^a] | 2.76 h |
| N#CCC(C1CCCC1O)n1cc(-c2ncnc3[nH]ccc23)c(N)n1 (stereo not shown) [Compound II] | > 4 h |

Lookup: // Input: N#CCC(C1CCC(=O)C1)n1cc(-c2ncnc3[nH]ccc23)c(N)n1 (stereo not shown) [Compound III] . Output its half-life at 1 μM only.
Found: > 4 h
